Test system: Rattus norvegicus
Experiment: In vivo anti-inflammatory activity against carrageenan-induced paw edema assay in rats at dose 0.15 mM/kg
Assay type: functional
Use 80% as the dividing line for Inhibition, with the line itself on the 1 (yes) side and lower values as 0 (no).

Identify whether the reported Inhibition of the following compound is 80% or greater: CCCCCCCCCCCCCCC(N)CN (stereo unspecified)
1 (yes)

Identify whether the reported Inhibition of the following compound is 80% or greater: CCCCCCCCCCCCCC[C@H](NC(=O)OC(C)(C)C)[C@H](O)CO
0 (no)

Identify whether the reported Inhibition of the following compound is 80% or greater: CCCCCCCCCCCCCC[C@@H](N)[C@@H](O)CO
1 (yes)

* * *

Tested on: UMSCC22B
Test: In vitro inhibitory activity against human and neck squamous cell carcinoma UMSCC-22B cell line
Type: functional, cell-based
MEASURE_NAME: IC50 (µM)
Express the result in µM but write the number alone.

Report its IC50 with UMSCC22B as the test system: CCCCCCCCCCCCCC[C@H](N)[C@H](O)CO
1.89

Report its IC50 with UMSCC22B as the test system: CCCCCCCCCCCCCCC(N)CN (stereo unspecified)
1.89

Report its IC50 with UMSCC22B as the test system: CCCCCCCCCCCCCC[C@H](NC(=O)OC(C)(C)C)[C@H](O)CO
23.8

Report its IC50 with UMSCC22B as the test system: CCCCCCCCCCCCCC[C@@H](N)[C@@H](O)CO
2.49

Report its IC50 with UMSCC22B as the test system: CCCCCCCCCCCCCCCCCC[C@@H](N)[C@@H](O)CO
3.5

Report its IC50 with UMSCC22B as the test system: CCCCCCCCCCCCCCCCCC[C@H](N)[C@H](O)CO
2.34

* * *

Tested on: Lewis lung carcinoma cell line
Experiment: In vitro inhibitory activity against LL murine NSCLC cell line;
Type: functional, cell-based
Settings: Mus musculus
Provide the recorded IC50 for the entries that follow.
Express the result in µM but write the number alone.

Return reported IC50. Input compound: CCCCCCCCCCCCCCCCCC[C@H](N)[C@H](O)CO
3.47

Return reported IC50. Input compound: CCCCCCCCCCCCCCC(N)CN (stereo unspecified)
2.93

Return reported IC50. Input compound: CCCCCCCCCCCCCC[C@@H](N)[C@@H](O)CO
1.87

Return reported IC50. Input compound: CCCCCCCCCCCCCC[C@H](NC(=O)OC(C)(C)C)[C@H](O)CO
24.2

Return reported IC50. Input compound: CCCCCCCCCCCCCCCCCC[C@@H](N)[C@@H](O)CO
10.6

Return reported IC50. Input compound: CCCCCCCCCCCCCC[C@H](N)[C@H](O)CO
2.86

* * *

Provide the recorded IC50 for the entries that follow.
Tested on: H322
Assay: In vitro inhibitory activity against H322 human NSCLC cell line
Format: functional, cell-based
Conditions: NCI-H322
Answer shape: numeric part, then the unit.

Return reported IC50. Input compound: CCCCCCCCCCCCCC[C@H](NC(=O)OC(C)(C)C)[C@H](O)CO
18 µM

Return reported IC50. Input compound: CCCCCCCCCCCCCC[C@H](N)[C@H](O)CO
1.45 µM

Return reported IC50. Input compound: CCCCCCCCCCCCCCC(N)CN (stereo unspecified)
2.94 µM

Return reported IC50. Input compound: CCCCCCCCCCCCCC[C@@H](N)[C@@H](O)CO
1.52 µM

Return reported IC50. Input compound: CCCCCCCCCCCCCCCCCC[C@@H](N)[C@@H](O)CO
24.4 µM

Return reported IC50. Input compound: CCCCCCCCCCCCCCCCCC[C@H](N)[C@H](O)CO
1.71 µM

* * *

System: Rattus norvegicus
Experiment: In vivo anti-inflammatory activity against carrageenan-induced paw edema assay in rats at dose 0.15 mM/kg
Format: functional
Provide the recorded Inhibition for the entries that follow.
Express the result in % but write the number alone.

Return reported Inhibition. Input compound: CCCCCCCCCCCCCC[C@H](N)[C@H](O)CO
81.1

Return reported Inhibition. Input compound: CCCCCCCCCCCCCCCCCC[C@H](N)[C@H](O)CO
79.6

Return reported Inhibition. Input compound: CCCCCCCCCCCCCCCCCC[C@@H](N)[C@@H](O)CO
80.04
